- experimental.system: amyloid plaques in 5xFAD mice brain sections (Homo sapiens)
- Construct: the amyloid beta (Aβ) peptide that makes up amyloid plaques; tissue Jackson Laboratories; host or cells: brain sections from 11-month-old 5xFAD transgenic mice (Tg6799 line)
- Sequence (P05067 672-713 limits assumed): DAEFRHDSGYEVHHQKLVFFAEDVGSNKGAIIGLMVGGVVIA
- experiment.notes: Histological staining of 5xFAD mice brain sections, colocalization with HJ3.4 antibody
- Assay type: binding, mouse
- condition.set: 11-month-old 5xFAD mice brain sections, compound 25 μM, HJ3.4 1 μg/mL
- From the text: To further investigate the affinity of the developed compounds toward various Aβ aggregates in situ, the intrinsic fluorescence properties of the compounds were employed for their ability to stain insoluble amyloid plaques. For these studies, brain sections from 11-month-old 5xFAD transgenic mice, which rapidly develop severe amyloid pathology, were co-stained with stilbenes and HJ3.4 antibody. […]
Kindly state Pearson's coefficient (R) of colocalization with AF594-HJ3.4 for each of the entries shown.
Answer field: number only, no words.

Req: Given `CCN(CC)c1ccc(/C=C/c2ccc(O)c(CN3CCN(C)CCN(C)CC3)c2)cc1` , state its recorded Pearson's coefficient (R) of colocalization with AF594-HJ3.4.
Resp: 0.70

Req: Look at this compound and give its reported Pearson's coefficient (R) of colocalization with AF594-HJ3.4. `CN1CCN(C)CCN(Cc2cc(/C=C/c3ccc(N4CCCCC4)cc3)ccc2O)CC1`
Resp: 0.68

Req: I'd like to know its Pearson's coefficient (R) of colocalization with AF594-HJ3.4. The compound in question is `CCN(CC)c1ccc(/C=C/c2cc(CN3CCN(C)CCN(C)CC3)c(O)c(OC)c2)cc1`
Resp: 0.74

Req: Fill blank: measured Pearson's coefficient (R) of colocalization with AF594-HJ3.4 of the compound `CN1CCN(C)CCN(Cc2cc(/C=C/c3ccc(N(C)C)cc3)ccc2O)CC1` is ____.
Resp: 0.60

Req: Data request, read-out Pearson's coefficient (R) of colocalization with AF594-HJ3.4, for `CN1CCN(C)CCN(Cc2cc(/C=C/c3ccc(N4CCOCC4)cc3)ccc2O)CC1`
Resp: 0.74

Req: Look at this compound and give its reported Pearson's coefficient (R) of colocalization with AF594-HJ3.4. `CN1CCN(C)CCN(Cc2cc(/C=C/c3ccc(N4CCN(C)CC4)cc3)ccc2O)CC1`
Resp: 0.65

Req: Entry `CNc1ccc(/C=C/c2cc(CN3CCN(C)CCN(C)CC3)c(O)c(OC)c2)cc1` : reported Pearson's coefficient (R) of colocalization with AF594-HJ3.4 = ?
Resp: 0.54

Req: # query: Pearson's coefficient (R) of colocalization with AF594-HJ3.4 of entry `COc1cc(/C=C/c2ccc(N3CCN(C)CC3)cc2)cc(CN2CCN(C)CCN(C)CC2)c1O`
Resp: 0.77

Req: Sample `COc1cc(/C=C/c2ccc(N(C)C)cc2)cc(CN2CCN(C)CCN(C)CC2)c1O` — what was its Pearson's coefficient (R) of colocalization with AF594-HJ3.4?
Resp: 0.67
